# TEST_SYSTEM: DNA gyrase (Escherichia coli) (UniProt P0AES6+P0AES4)
# TEST_NAME: In vitro antibacterial against gram-negative organism Escherichia coli JUHL
# Assay type: functional
# CONDITIONS: Escherichia coli K-12
MEASURE_NAME: MIC (µg/mL)

{"COMPOUND": "CCc1c(N2CCC(N)C2)c(F)cn2c(=O)c(C(=O)O)cc(C3CC3)c12 (stereo unspecified)", "MIC [µg/mL]": 0.2}
{"COMPOUND": "CN1CCN(c2nc3c(C4CC4)cc(C(=O)O)c(=O)n3cc2F)CC1", "MIC [µg/mL]": 0.2}
{"COMPOUND": "CO[C@@H]1CN(c2c(F)cn3c(=O)c(C(=O)O)cc(C4CC4)c3c2C)C[C@H]1N", "MIC [µg/mL]": 0.05}
{"COMPOUND": "O=C(O)c1cc(C2CC2)c2nc(N3CCOCC3)c(F)cn2c1=O", "MIC [µg/mL]": 3.1}
{"COMPOUND": "Cc1c(N(C)CCN)c(F)cn2c(=O)c(C(=O)O)cc(C3CC3)c12", "MIC [µg/mL]": 0.78}
{"COMPOUND": "Cc1c(N2C[C@H]3CCCN[C@H]3C2)c(F)cn2c(=O)c(C(=O)O)cc(C3CC3)c12 (single isomer, unassigned)", "MIC [µg/mL]": 0.05}
{"COMPOUND": "Cc1c(N2CC[C@@H]([C@@H](C)N)C2)c(F)cn2c(=O)c(C(=O)O)cc(C3CC3)c12", "MIC [µg/mL]": 0.001}
{"COMPOUND": "Cc1c(N2C[C@H]3CCC[C@@H](N)[C@H]3C2)c(F)cn2c(=O)c(C(=O)O)cc(C3CC3)c12", "MIC [µg/mL]": 0.01}
{"COMPOUND": "Cc1ccc(S(=O)(=O)O)cc1.NC1CCN(c2nc3c(cc2F)c(=O)c(C(=O)O)cn3-c2ccc(F)cc2F)C1 (stereo unspecified) [TOSUFLOXACIN TOSYLATE]", "MIC [µg/mL]": 0.05}
{"COMPOUND": "CCc1cc(C(=O)O)c(=O)n2cc(F)c(N3CCC(N)C3)c(C)c12 (stereo unspecified)", "MIC [µg/mL]": 0.01}

[I] Cc1c(F)c(N2CCC(N)C2)cc2c(C3CC3)cc(C(=O)O)c(=O)n12 (stereo unspecified)
[II] Cc1c(N2C[C@@H]3[C@@H](N)[C@@H]3C2)c(F)cn2c(=O)c(C(=O)O)cc(C3CC3)c12
Compare I and II and name the one whose reported MIC is smaller. Answer by quoting the chosen item's label.
II

[1] Cc1c(N2CCC(O)C2)c(F)cn2c(=O)c(C(=O)O)cc(C3CC3)c12 (stereo unspecified)
[2] O=C(O)c1cc(-c2ccc(F)cc2F)c2nc(N3CCC(O)C3)c(F)cn2c1=O (stereo unspecified)
[3] Cc1c(N2C[C@@H]3CCCN[C@@H]3C2)c(F)cn2c(=O)c(C(=O)O)cc(C3CC3)c12 (stereo in doubt; (S,S)45n)
[4] CN1CCN(c2nc3c(-c4ccc(F)cc4F)cc(C(=O)O)c(=O)n3cc2F)CC1
Number of compounds to sort: 4. Sort criterion: MIC, ascending. Output the labels ranked as instructed.
3, 1, 2, 4
(3: 0.005 µg/mL, 1: 0.02 µg/mL, 2: 0.1 µg/mL, 4: 0.39 µg/mL)

[I] Cc1c(N2C[C@@H]3CCN[C@@H]3C2)c(F)cn2c(=O)c(C(=O)O)cc(C3CC3)c12 (stereo in doubt; (S,S)45o)
[II] CNC1CCN(c2c(F)cn3c(=O)c(C(=O)O)cc(C4CC4)c3c2C)C1 (stereo unspecified)
Which value of MIC is numerically greater: that of I or that of II ? Answer by quoting the chosen item's label.
I
